These data points were gathered from ChEMBL document CHEMBL1136833.

System: SKW 6.4
assay.procedure: Cytotoxicity against SK W6.4 cell growth (Type I)
Type: functional, cell-based
stated.conditions: Homo sapiens
assay.metric: IC50 (µM)
The reply should be a number in µM, with the unit left off.

Use these answered entries as a reference point.
So the reported IC50 for "C/C=C/C1=C(CO)[C@@H](O)[C@@H]2O[C@@H]2C1=O" , on SKW 6.4, turned out to be 80

So the reported IC50 for "C/C=C/C1=C(CO)C(=O)[C@H]2O[C@H]2C1=O" , on SKW 6.4, turned out to be 9

So the reported IC50 for "CCCC/C=C/C1=C(CO)C(=O)[C@H]2O[C@H]2C1=O" , on SKW 6.4, turned out to be 7

So the reported IC50 for "CCCC/C=C/C1=C(CO)[C@H](O)[C@H]2O[C@H]2C1=O" , on SKW 6.4, turned out to be 35

Next item in the queue.
So the reported IC50 for "O=C1C(/C=C/c2ccccc2)=C(CO)[C@H](O)[C@H]2O[C@@H]12" , on SKW 6.4, turned out to be 30
